The following molecules have recorded Kd on Serine/threonine-protein kinase/endoribonuclease IRE1 (Homo sapiens).
Activity calls are given as the source filed them.

// worked examples, Kd included
Molecule	Result
COc1cc(OC)c(/C=C/S(=O)(=O)Cc2ccc(OC)c(NCC(=O)O)c2)c(OC)c1	> 30 µM (inactive)
CN1N=C(N)c2cn([C@@H]3O[C@H](COP(=O)(O)O)[C@@H](O)[C@H]3O)c3ncnc1c23 [TRICIRIBINE PHOSPHATE]	> 30 µM (inactive)

# lookup: Serine/threonine-protein kinase/endoribonuclease IRE1 (Homo sapiens) Kd, key = CO[C@H]1C[C@@H]2CC[C@@H](C)[C@@](O)(O2)C(=O)C(=O)N2CCCC[C@H]2C(=O)O[C@H]([C@H](C)C[C@@H]2CC[C@@H](OCCO)[C@H](OC)C2)CC(=O)[C@H](C)/C=C(\C)[C@@H](O)[C@@H](OC)C(=O)[C@H](C)C[C@H](C)/C=C/C=C/C=C/1C
> 30 µM (inactive)

# lookup: Serine/threonine-protein kinase/endoribonuclease IRE1 (Homo sapiens) Kd, key = CNC(=O)c1ccc(-c2cnc3ncc(Cc4ccc5ncccc5c4)n3n2)cc1F
> 30 µM (inactive)

# lookup: Serine/threonine-protein kinase/endoribonuclease IRE1 (Homo sapiens) Kd, key = CN1CC[C@@H](c2c(O)cc(O)c3c(=O)cc(-c4ccccc4Cl)oc23)[C@@H]1CO
> 30 µM (inactive)

# lookup: Serine/threonine-protein kinase/endoribonuclease IRE1 (Homo sapiens) Kd, key = O=C(Nc1ccc(-c2ccnc(Nc3ccc(N4CCOCC4)cc3)n2)cc1)C1CCCN1 (configuration not stated)
> 30 µM (inactive)

# lookup: Serine/threonine-protein kinase/endoribonuclease IRE1 (Homo sapiens) Kd, key = OCCn1cc(-c2cnc3nnn(Cc4ccc5ncccc5c4)c3n2)cn1
> 30 µM (inactive)

====

Molecular target: Serine/threonine-protein kinase A-Raf (Homo sapiens, UniProt P10398); further: in the data inactive means no Kd found up to 30 µM
The source made the active and inactive calls.
Permitted responses: Yes for active, No for inactive

Call for entry CNC(=O)c1ccc(-c2cnc3ncc(Cc4ccc5ncccc5c4)n3n2)cc1F [CAPMATINIB] :
No

Call for entry C[C@@H](Nc1cc(F)cc(F)c1)c1cc(C(=O)N(C)C)cc2c(=O)cc(N3CCOCC3)oc12 [AZD-8186] :
No

Call for entry CC(=O)Nc1cccc(-n2c(=O)n(C3CC3)c(=O)c3c(Nc4ccc(I)cc4F)n(C)c(=O)c(C)c32)c1 [TRAMETINIB] :
No

Call for entry CCCS(=O)(=O)Nc1ccc(F)c(C(=O)c2c[nH]c3ncc(-c4ccc(Cl)cc4)cc23)c1F [VEMURAFENIB] :
Yes

Call for entry CO[C@H]1C[C@@H]2CC[C@@H](C)[C@@](O)(O2)C(=O)C(=O)N2CCCC[C@H]2C(=O)O[C@H]([C@H](C)C[C@@H]2CC[C@@H](OCCO)[C@H](OC)C2)CC(=O)[C@H](C)/C=C(\C)[C@@H](O)[C@@H](OC)C(=O)[C@H](C)C[C@H](C)/C=C/C=C/C=C/1C [EVEROLIMUS] :
No

Call for entry O=C(Nc1cccc(Cl)c1)Nc1ncc(CCNc2ncnc3ccsc23)s1 [SNS-314] :
No

Call for entry CCS(=O)(=O)N1CC(CC#N)(n2cc(-c3ncnc4[nH]ccc34)cn2)C1 [BARICITINIB] :
No

====

Molecular target: Serine/threonine-protein kinase Nek9 (Homo sapiens); further: in the data inactive means no Kd found up to 30 µM
Sequence (Q8TD19 whole entry): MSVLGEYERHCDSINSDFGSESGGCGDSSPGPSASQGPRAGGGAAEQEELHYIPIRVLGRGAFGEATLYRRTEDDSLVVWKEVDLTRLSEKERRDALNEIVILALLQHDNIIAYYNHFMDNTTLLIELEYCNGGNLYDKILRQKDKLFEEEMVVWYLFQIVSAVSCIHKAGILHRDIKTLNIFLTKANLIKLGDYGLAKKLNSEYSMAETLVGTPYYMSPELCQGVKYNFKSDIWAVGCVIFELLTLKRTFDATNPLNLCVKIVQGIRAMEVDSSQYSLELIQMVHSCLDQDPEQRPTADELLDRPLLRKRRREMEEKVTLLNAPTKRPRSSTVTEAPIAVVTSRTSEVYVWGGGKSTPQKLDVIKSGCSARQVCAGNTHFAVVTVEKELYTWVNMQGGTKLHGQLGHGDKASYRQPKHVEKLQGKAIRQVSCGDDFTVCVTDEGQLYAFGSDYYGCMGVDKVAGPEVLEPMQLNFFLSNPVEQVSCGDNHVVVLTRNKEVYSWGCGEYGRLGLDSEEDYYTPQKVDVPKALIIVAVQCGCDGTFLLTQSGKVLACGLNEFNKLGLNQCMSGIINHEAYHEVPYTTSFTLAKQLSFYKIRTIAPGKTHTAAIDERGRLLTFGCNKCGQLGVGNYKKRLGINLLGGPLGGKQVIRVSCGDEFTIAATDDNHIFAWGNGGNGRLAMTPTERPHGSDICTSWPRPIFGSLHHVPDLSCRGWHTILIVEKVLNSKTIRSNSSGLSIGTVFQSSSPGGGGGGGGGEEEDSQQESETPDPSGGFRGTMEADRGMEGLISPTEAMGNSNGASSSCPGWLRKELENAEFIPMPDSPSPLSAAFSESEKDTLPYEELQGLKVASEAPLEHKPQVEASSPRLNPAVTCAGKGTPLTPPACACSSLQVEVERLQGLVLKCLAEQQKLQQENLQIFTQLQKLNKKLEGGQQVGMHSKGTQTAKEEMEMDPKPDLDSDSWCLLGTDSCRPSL
The source made the active and inactive calls.
Permitted responses: active, inactive

Worked cases, answers included:
Compound	Target	Category
C=CC(=O)N1CCC(Oc2cc3c(Nc4ccc(Cl)c(Cl)c4F)ncnc3cc2OC)CC1	Serine/threonine-protein kinase Nek9 (Homo sapiens)	inactive
CC[C@H](Nc1ncnc2[nH]cnc12)c1nc2cccc(F)c2c(=O)n1-c1ccccc1	Serine/threonine-protein kinase Nek9 (Homo sapiens)	inactive
CO[C@H]1C[C@@H]2CC[C@@H](C)[C@@](O)(O2)C(=O)C(=O)N2CCCC[C@H]2C(=O)O[C@H]([C@H](C)C[C@@H]2CC[C@@H](OCCO)[C@H](OC)C2)CC(=O)[C@H](C)/C=C(\C)[C@@H](O)[C@@H](OC)C(=O)[C@H](C)C[C@H](C)/C=C/C=C/C=C/1C	Serine/threonine-protein kinase Nek9 (Homo sapiens)	inactive
CC(C)Nc1cc(-c2c[nH]c(C(=O)N[C@H](CO)c3cccc(Cl)c3)c2)c(Cl)cn1	Serine/threonine-protein kinase Nek9 (Homo sapiens)	inactive

Call for entry Cn1cc(-c2ccc3nnc(C(F)(F)c4ccc5ncccc5c4)n3n2)cn1 :
inactive

Call for entry Cc1cc([C@@H](C)Nc2ccccc2C(=O)O)c2nc(N3CCOCC3)cc(=O)n2c1 :
inactive

Call for entry CNC(=O)c1ccc(C)c(-n2c(C)cc(OCc3ccc(F)cc3F)c(Br)c2=O)c1 :
inactive

====

The following compounds have recorded Kd on Tyrosine-protein kinase Lyn (Homo sapiens).
Sequence (P07948 whole entry): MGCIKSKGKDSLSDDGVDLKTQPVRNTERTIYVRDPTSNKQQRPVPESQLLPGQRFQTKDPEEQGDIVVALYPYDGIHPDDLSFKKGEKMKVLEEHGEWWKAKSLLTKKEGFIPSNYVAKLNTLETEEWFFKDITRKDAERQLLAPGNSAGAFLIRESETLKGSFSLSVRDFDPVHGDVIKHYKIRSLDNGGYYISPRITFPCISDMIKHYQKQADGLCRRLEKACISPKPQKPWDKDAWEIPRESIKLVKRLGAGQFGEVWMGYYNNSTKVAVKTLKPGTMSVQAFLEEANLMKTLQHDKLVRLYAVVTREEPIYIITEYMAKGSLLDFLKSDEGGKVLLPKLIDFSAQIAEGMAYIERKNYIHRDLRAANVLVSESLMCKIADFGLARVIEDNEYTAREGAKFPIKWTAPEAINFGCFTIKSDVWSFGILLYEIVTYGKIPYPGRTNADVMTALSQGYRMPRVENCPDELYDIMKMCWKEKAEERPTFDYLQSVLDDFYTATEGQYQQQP
The source made the active and inactive calls.

// worked examples, Kd included
Chemical string	Target	Kd
Cc1cc(-c2cc(O)ccc2Cl)cc2nnc(Nc3ccc(OCCN4CCCC4)cc3)nc12	Tyrosine-protein kinase Lyn (Homo sapiens)	> 30 µM (inactive)
CO[C@H]1C[C@@H]2CC[C@@H](C)[C@@](O)(O2)C(=O)C(=O)N2CCCC[C@H]2C(=O)O[C@H]([C@H](C)C[C@@H]2CC[C@@H](OCCO)[C@H](OC)C2)CC(=O)[C@H](C)/C=C(\C)[C@@H](O)[C@@H](OC)C(=O)[C@H](C)C[C@H](C)/C=C/C=C/C=C/1C	Tyrosine-protein kinase Lyn (Homo sapiens)	> 30 µM (inactive)

Next item in the queue.
# lookup: Tyrosine-protein kinase Lyn (Homo sapiens) Kd, key = O=C(Nc1cccc(Cl)c1)Nc1ncc(CCNc2ncnc3ccsc23)s1
> 30 µM (inactive)

====

Molecular target: Serine/threonine-protein kinase SIK3 (Homo sapiens, UniProt Q9Y2K2); further: in the data inactive means no Kd found up to 30 µM
Sequence (Q9Y2K2 whole entry): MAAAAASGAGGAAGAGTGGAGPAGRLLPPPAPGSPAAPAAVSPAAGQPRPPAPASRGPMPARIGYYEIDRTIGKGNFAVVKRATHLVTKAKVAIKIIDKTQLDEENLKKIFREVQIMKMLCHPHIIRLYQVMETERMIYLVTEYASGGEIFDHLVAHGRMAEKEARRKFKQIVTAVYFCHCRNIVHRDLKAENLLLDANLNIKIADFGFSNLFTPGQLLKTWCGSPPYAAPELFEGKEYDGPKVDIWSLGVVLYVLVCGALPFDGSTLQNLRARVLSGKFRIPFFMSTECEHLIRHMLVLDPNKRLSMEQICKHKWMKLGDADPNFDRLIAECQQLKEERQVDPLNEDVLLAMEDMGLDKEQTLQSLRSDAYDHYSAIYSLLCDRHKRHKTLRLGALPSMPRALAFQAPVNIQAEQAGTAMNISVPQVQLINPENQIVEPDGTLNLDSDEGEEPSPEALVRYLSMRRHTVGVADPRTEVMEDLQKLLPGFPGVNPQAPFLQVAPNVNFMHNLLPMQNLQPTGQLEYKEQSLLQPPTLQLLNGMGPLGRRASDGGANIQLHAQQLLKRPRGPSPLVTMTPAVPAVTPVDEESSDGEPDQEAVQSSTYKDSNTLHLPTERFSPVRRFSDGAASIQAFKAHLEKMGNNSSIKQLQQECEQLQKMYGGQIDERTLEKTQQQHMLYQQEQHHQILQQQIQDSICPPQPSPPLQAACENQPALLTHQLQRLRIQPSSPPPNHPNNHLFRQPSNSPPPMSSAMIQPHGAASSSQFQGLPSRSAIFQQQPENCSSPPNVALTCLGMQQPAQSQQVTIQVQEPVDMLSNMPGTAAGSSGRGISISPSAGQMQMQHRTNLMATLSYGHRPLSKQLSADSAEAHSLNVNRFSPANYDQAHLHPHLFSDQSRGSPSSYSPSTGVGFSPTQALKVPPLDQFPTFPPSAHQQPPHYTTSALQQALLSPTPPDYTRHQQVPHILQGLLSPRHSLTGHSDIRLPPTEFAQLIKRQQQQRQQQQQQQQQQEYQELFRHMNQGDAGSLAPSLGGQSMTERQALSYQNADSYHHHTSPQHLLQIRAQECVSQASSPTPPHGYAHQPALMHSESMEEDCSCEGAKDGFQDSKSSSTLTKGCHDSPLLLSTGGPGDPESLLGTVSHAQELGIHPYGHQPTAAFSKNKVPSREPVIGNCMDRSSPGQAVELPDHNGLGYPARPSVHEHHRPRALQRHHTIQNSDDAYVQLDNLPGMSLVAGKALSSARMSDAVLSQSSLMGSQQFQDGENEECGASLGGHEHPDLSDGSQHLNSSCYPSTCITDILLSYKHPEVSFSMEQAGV
Active and inactive are the calls of the source.
Permitted responses: true (active), false (inactive)

Worked cases, answers included:
> print(dat)
                                   molecule                                    target  category
1  COC(=O)[C@@]1(O)C[C@H]2O[C@]1(C)n1c3ccccc3c3c4c(c5c6ccccc6n2c5c31)C(=O)NC4 [K-252A]  Serine/threonine-protein kinase SIK3 (Homo sapiens, UniProt Q9Y2K2)      true
2  C[C@@H](Nc1cc(F)cc(F)c1)c1cc(C(=O)N(C)C)cc2c(=O)cc(N3CCOCC3)oc12  Serine/threonine-protein kinase SIK3 (Homo sapiens, UniProt Q9Y2K2)     false
3  CN1N=C(N)c2cn([C@@H]3O[C@H](COP(=O)(O)O)[C@@H](O)[C@H]3O)c3ncnc1c23 [TRICIRIBINE PHOSPHATE]  Serine/threonine-protein kinase SIK3 (Homo sapiens, UniProt Q9Y2K2)     false

Call for entry Cc1ccc(-n2nc(C(C)(C)C)cc2NC(=O)NCc2cc(F)ccc2Oc2ccc3c(cnn3CCO)c2)cc1 :
false

====

Molecular target: Glycogen synthase kinase-3 beta (Homo sapiens, UniProt P49841); further: in the data inactive means no Kd found up to 30 µM
Sequence (P49841 whole entry): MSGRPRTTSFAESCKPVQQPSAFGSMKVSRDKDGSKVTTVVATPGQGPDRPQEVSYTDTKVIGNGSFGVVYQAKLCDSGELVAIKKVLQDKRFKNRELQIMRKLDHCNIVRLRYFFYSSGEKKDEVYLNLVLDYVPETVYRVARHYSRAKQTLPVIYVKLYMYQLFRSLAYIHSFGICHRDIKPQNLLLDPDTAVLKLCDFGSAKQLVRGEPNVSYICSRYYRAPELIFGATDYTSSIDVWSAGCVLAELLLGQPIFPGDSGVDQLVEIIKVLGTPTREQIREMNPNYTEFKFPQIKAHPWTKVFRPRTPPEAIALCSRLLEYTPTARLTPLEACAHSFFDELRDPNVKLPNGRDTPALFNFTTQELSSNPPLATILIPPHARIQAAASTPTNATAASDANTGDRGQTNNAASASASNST
Active and inactive are the calls of the source.
Permitted responses: yes (1) (active), no (0) (inactive)

Worked cases, answers included:
> print(dat)
                                   compound  category
1  Cc1ccc(-n2nc(C(C)(C)C)cc2NC(=O)NCc2cc(F)ccc2Oc2ccc3c(cnn3CCO)c2)cc1 [PEXMETINIB]    no (0)
2  COc1cc(CCc2cc(NC(=O)c3ccc(N4C[C@@H](C)N[C@@H](C)C4)cc3)n[nH]2)cc(OC)c1 [AZD-4547]    no (0)
3  C[C@@H]1CN(Cc2ccc(F)cc2)[C@@H](C)CN1C(=O)c1cc2c(C(=O)C(=O)N(C)C)cn(C)c2cc1Cl [TALMAPIMOD]    no (0)
4  CC[C@@H]1C(=O)N(C)c2cnc(Nc3ccc(C(=O)N[C@H]4CC[C@H](N5CCN(CC6CC6)CC5)CC4)cc3OC)nc2N1C(C)C [VOLASERTIB]    no (0)
5  O=C(O)[C@]1(Cc2cccc(Nc3nccs3)n2)CC[C@@H](Oc2cccc(Cl)c2F)CC1 [MK-5108]    no (0)

Call for entry CN1CC[C@@H](c2c(O)cc(O)c3c(=O)cc(-c4ccccc4Cl)oc23)[C@@H]1CO :
yes (1)

Call for entry CN1CCC(COc2cnc(-c3cccc(Cn4nc(-c5cccc(C#N)c5)ccc4=O)c3)nc2)CC1 [TEPOTINIB] :
no (0)

====

The source made the active and inactive calls.
The following compounds have recorded Kd on Serine/threonine-protein kinase MRCK alpha (Homo sapiens, UniProt Q5VT25).
Sequence (Q5VT25 whole entry): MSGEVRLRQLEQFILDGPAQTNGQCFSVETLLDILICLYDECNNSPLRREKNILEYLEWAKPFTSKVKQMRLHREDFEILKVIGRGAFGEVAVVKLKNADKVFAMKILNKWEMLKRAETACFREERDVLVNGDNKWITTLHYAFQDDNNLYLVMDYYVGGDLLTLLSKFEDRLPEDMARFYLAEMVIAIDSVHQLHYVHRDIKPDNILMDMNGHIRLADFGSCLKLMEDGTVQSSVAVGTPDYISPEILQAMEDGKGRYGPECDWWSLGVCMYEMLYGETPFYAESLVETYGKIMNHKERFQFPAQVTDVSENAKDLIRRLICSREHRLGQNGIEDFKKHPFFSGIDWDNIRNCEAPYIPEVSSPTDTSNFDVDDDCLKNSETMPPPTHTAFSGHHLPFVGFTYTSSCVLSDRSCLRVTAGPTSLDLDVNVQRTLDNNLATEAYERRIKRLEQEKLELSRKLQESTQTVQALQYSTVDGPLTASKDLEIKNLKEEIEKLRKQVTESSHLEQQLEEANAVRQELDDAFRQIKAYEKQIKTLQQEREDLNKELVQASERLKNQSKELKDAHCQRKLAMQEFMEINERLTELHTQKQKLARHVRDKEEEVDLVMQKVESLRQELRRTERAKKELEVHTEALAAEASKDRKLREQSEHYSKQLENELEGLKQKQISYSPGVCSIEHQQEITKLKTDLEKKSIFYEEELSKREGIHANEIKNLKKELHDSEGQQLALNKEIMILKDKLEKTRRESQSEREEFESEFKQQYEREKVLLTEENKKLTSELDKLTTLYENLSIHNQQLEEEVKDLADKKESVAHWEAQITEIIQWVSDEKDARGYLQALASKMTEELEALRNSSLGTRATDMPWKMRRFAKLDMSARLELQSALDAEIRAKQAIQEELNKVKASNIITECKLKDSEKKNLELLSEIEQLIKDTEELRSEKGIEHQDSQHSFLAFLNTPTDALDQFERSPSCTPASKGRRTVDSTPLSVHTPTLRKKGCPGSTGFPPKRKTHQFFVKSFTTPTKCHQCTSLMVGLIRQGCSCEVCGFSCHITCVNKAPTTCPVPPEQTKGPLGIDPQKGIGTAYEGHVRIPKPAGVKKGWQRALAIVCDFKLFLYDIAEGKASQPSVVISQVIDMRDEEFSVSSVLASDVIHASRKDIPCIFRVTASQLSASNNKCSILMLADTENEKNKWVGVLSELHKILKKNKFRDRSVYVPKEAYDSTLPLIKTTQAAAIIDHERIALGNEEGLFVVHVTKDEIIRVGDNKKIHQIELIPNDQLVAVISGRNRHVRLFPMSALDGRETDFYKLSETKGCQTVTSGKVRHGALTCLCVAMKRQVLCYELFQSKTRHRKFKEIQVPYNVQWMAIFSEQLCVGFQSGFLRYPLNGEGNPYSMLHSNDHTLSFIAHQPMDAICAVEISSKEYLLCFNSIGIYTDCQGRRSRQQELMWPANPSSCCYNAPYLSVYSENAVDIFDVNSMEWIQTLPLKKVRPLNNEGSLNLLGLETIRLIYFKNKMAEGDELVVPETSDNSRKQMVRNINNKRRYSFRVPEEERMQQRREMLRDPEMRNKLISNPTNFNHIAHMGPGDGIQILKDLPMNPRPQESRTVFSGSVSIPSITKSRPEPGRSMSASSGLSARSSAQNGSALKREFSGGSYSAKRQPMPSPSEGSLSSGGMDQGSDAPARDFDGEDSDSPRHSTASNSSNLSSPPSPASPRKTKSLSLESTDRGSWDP

// worked examples, Kd included
> print(dat)
                                   compound              result
1  N[C@@H]1CCCN(c2c(/C=C3\SC(=O)NC3=O)cccc2-c2ccccc2)C1  > 30 µM (inactive)
2  Cc1cc([C@@H](C)Nc2ccccc2C(=O)O)c2nc(N3CCOCC3)cc(=O)n2c1  > 30 µM (inactive)
3  CNS(=O)(=O)Nc1nccc(Cc2c(C)c3ccc(Oc4ncccn4)cc3oc2=O)c1F  > 30 µM (inactive)
4  CC[C@H](Nc1ncnc2[nH]cnc12)c1nc2cccc(F)c2c(=O)n1-c1ccccc1  > 30 µM (inactive)
5  CC[C@@H]1C(=O)N(C)c2cnc(Nc3ccc(C(=O)N[C@H]4CC[C@H](N5CCN(CC6CC6)CC5)CC4)cc3OC)nc2N1C(C)C  > 30 µM (inactive)
6  OCCn1cc(-c2cnc3nnn(Cc4ccc5ncccc5c4)c3n2)cn1  > 30 µM (inactive)
7  CN1CCC(COc2cnc(-c3cccc(Cn4nc(-c5cccc(C#N)c5)ccc4=O)c3)nc2)CC1  > 30 µM (inactive)
8  CN1CC[C@@H](c2c(O)cc(O)c3c(=O)cc(-c4ccccc4Cl)oc23)[C@@H]1CO  > 30 µM (inactive)

State its Kd: CC(=O)Nc1cccc(-n2c(=O)n(C3CC3)c(=O)c3c(Nc4ccc(I)cc4F)n(C)c(=O)c(C)c32)c1
> 30 µM (inactive)

State its Kd: CCN1CCN(Cc2ccc(-c3cc4c(N[C@H](C)c5ccccc5)ncnc4[nH]3)cc2)CC1
> 30 µM (inactive)

State its Kd: CCn1c(=O)c(-c2cc[nH]n2)cc2c(C)nc(N)nc21
> 30 µM (inactive)

State its Kd: COC(=O)[C@@]1(O)C[C@H]2O[C@]1(C)n1c3ccccc3c3c4c(c5c6ccccc6n2c5c31)C(=O)NC4 [K-252A]
> 30 µM (inactive)

State its Kd: COc1cc(N2CCC(N3CCN(C)CC3)CC2)ccc1Nc1ncnc(Nc2ccccc2S(=O)(=O)C(C)C)n1
> 30 µM (inactive)

State its Kd: C[C@@H](c1ccc2nccn2c1)n1nnc2ncc(-c3cnn(C)c3)nc21
> 30 µM (inactive)

State its Kd: Cn1ncc(Cl)c1-c1cc(C(=O)N[C@H](CN)Cc2cccc(F)c2)sc1Cl
> 30 µM (inactive)

State its Kd: COc1cc2nccc(Oc3ccc(NC(=O)Nc4cc(C)on4)c(Cl)c3)c2cc1OC
> 30 µM (inactive)
